Molecular target: human Smo (amino acids 181-787) (Homo sapiens, UniProt Q99835)
Construct: expressed in transfected cells; membrane preparation
Sequence (Q99835 181-787): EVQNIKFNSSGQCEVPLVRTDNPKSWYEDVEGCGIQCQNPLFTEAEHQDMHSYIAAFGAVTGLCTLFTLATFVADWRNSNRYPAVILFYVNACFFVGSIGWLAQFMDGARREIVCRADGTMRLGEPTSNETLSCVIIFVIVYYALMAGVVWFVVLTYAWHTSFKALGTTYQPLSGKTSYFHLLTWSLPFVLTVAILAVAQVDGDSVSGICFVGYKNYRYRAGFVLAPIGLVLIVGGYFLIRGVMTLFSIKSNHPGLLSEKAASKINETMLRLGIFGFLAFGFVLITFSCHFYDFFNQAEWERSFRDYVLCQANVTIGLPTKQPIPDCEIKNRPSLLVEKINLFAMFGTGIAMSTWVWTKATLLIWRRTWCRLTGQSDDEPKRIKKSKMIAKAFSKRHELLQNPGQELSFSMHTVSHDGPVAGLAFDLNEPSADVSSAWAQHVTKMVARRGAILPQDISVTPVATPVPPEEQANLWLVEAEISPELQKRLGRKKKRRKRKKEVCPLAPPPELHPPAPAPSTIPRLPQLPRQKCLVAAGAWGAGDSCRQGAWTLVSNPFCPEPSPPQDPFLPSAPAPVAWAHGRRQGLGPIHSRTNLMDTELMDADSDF
Assay: Smo radioligand competition binding assay (displacement of 3H-PF-03451358 from HEK293 membranes)
Conditions: 0.05 μM test compound; displacement of 3H-PF-03451358; read-out: SMO % inh. @ 0.05 μM
OBSERVATION_TYPE: inhibition at 0.05 µM (%)
Form entry: value (%) — number only.

Before answering, review these 3 worked examples.
# MOLECULE, TEST_RESULT
measured = [
    ("COC(=O)NC1CCN(c2cc(-c3nc4ccccc4n3C)c(Cl)cn2)C1 (centres unmarked)", 87),
    ("CNC(=O)COC1CCN(c2cc(-c3nc4ccccc4n3C)c(Cl)cn2)CC1", 91),
    ("CNC(=O)NC1CCN(c2cc(-c3nc4ccccc4n3C)c(F)cn2)CC1", 97),
]

Lab note: need inhibition at 0.05 µM for "Cn1c(-c2cc(N3[C@@H]4CC[C@H]3C[C@@H](NS(C)(=O)=O)C4)ncc2Cl)nc2ccccc21" on human Smo (amino acids 181-787) (Homo sapiens, UniProt Q99835), anyone have it?
103

Same question for "Cc1cnc(N2CCC(S(C)(=O)=O)CC2)cc1-c1nc2ccccc2n1C" please.
89

Next molecule up: "Cn1c(-c2cc(N3C[C@](C)(CO)[C@](C)(CO)C3)ncc2Cl)nc2ccccc21"
76

Try this molecule next: CC(=O)NCC1CCCN(c2cc(-c3nc4ccccc4n3C)c(Cl)cn2)C1 (centres unmarked)
95

Next entry: "CC(=O)NCC1CCN(c2cc(-c3nc4ccccc4n3C)c(Cl)cn2)CC1"
89

====

human Smo (amino acids 181-787) (Homo sapiens): reported IC50 for various compounds.
The reply should be a number in nM, with the unit left off.

# CHEMICAL_SMILES, MEASUREMENT_TARGET, READOUT_UNIT, IC50
rows = [
    ("Cn1c(-c2nc(N3CCN(C=O)CC3)ccc2Cl)nc2ccccc21", "human Smo (amino acids 181-787) (Homo sapiens)", "nM", 27),
    ("Cn1c(-c2nc(N3CCC(NS(C)(=O)=O)CC3)ncc2Cl)nc2ccccc21", "human Smo (amino acids 181-787) (Homo sapiens)", "nM", 6),
    ("CN(CCCO)c1cc(-c2nc3ccccc3n2C)c(Cl)cn1", "human Smo (amino acids 181-787) (Homo sapiens)", "nM", 17),
    ("Cn1c(-c2cc(N3C[C@@H](CO)[C@@H](CCO)C3)ncc2Cl)nc2ccccc21", "human Smo (amino acids 181-787) (Homo sapiens)", "nM", 116),
    ("Cc1cnc(N2CCC(CS(C)(=O)=O)CC2)cc1-c1nc2ccccc2n1C", "human Smo (amino acids 181-787) (Homo sapiens)", "nM", 18),
]

State the recorded IC50 for this entry: "C[C@@H]1CN(c2cc(-c3nc4ccccc4n3C)c(Cl)cn2)CCN1S(C)(=O)=O"
9

Entry "Cn1c(-c2cc(N3CCC(O)(CN4CCOCC4)CC3)ncc2Cl)nc2ccccc21" please
61

====

// values below are IC50; system is human Smo (amino acids 181-787) (Homo sapiens, UniProt Q99835)
Returns: string containing the number followed by the unit.

// lookup IC50 for Cn1c(-c2nc(N3CCC(O)CC3)ncc2Cl)nc2ccccc21 [Example C-11]
16 nM

====

Molecular target: human Smo (amino acids 181-787) (Homo sapiens, UniProt Q99835)
OBSERVATION_TYPE: log10(IC50) (log10 of the value in nM)
All values: log10 IC50 [nM].

Some solved entries appear below for comparison.
# MOLECULE, log10(IC50)
rows = [
    ("Cn1c(-c2cc(N3CCN(S(=O)(=O)CC(C)(C)O)CC3)ncc2F)nc2ccccc21", 0.95),
    ("CNC(=O)N(C)C1CCN(c2cc(-c3nc4ccccc4n3C)c(Cl)cn2)CC1", 1.00),
    ("COC(=O)NC1CCN(c2cc(-c3nc4ccccc4n3C)ccn2)CC1", 1.40),
    ("Cn1c(-c2cc(N3CCN(C=O)CC3)ncc2Cl)nc2cccnc21", 2.15),
    ("COC1CCOC2(CCN(c3cc(-c4nc5ccccc5n4C)c(Cl)cn3)CC2)C1 (stereo not shown)", 1.85),
]

Recorded log10(IC50) for "CNC(=O)N1CCN(c2cccc(-c3nc4ccccc4n3C)n2)CC1" , please?
1.91

====

Values of pIC50 reported for human Smo (amino acids 181-787) (Homo sapiens, UniProt Q99835) appear below.
Interpret pIC50 as the negative base-10 log of the concentration measured in mol/L.

Worked examples, 5 molecules total:
# CHEMICAL_SMILES, MEASUREMENT_TARGET, pIC50
records = [
    ("CC(=O)N1CCN(c2cc(-c3nc4ccccc4n3C)c(Cl)cn2)C[C@H]1C", "human Smo (amino acids 181-787) (Homo sapiens, UniProt Q99835)", 8.00),
    ("Cn1c(-c2cc(N3CCN(C(=O)CC(C)(C)O)CC3)ncc2Cl)nc2ccccc21", "human Smo (amino acids 181-787) (Homo sapiens, UniProt Q99835)", 8.15),
    ("Cn1c(-c2ccnc(N3CCC(NS(C)(=O)=O)CC3)n2)nc2ccccc21", "human Smo (amino acids 181-787) (Homo sapiens, UniProt Q99835)", 7.36),
    ("COC(=O)NC1CN(c2cc(-c3nc4ccccc4n3C)c(Cl)cn2)C1", "human Smo (amino acids 181-787) (Homo sapiens, UniProt Q99835)", 7.23),
    ("Cn1c(-c2ccnc(N3CCCN(S(C)(=O)=O)CC3)c2)nc2ccccc21", "human Smo (amino acids 181-787) (Homo sapiens, UniProt Q99835)", 7.51),
]

So what does the record say about pIC50 for "Cn1c(-c2ccnc(N3CCC(S(C)(=O)=O)CC3)c2)nc2ccccc21" ?
7.02

Field entry: "CCNC(=O)N1CCN(c2cc(-c3nc4ccccc4n3C)c(F)cn2)CC1"
8.10

Also "CCC(=O)N1CCN(c2cc(-c3nc4ccccc4n3C)c(F)cn2)CC1" ?
7.72

====

Target: human Smo (amino acids 181-787) (Homo sapiens)
Construct: expressed in transfected cells; membrane preparation
Test: Smo radioligand competition binding assay (displacement of 3H-PF-03451358 from HEK293 membranes)
Details: 0.05 μM test compound; displacement of 3H-PF-03451358; read-out: SMO % inh. @ 0.05 μM
OBSERVATION_TYPE: inhibition at 0.05 µM (%)
Please reply with the bare figure in % and do not write the unit itself.

Below, each entry is followed by its recorded inhibition at 0.05 µM result.
# COMPOUND, OBSERVATION_TYPE, TEST_RESULT
data = [
    ("CC(=O)N1CCN(c2cc(-c3nc4cccnc4n3C)c(Cl)cn2)CC1", "inhibition at 0.05 µM", 66),
    ("COC(=O)N(C)C1CN(c2cc(-c3nc4ccccc4n3C)c(Cl)cn2)C1", "inhibition at 0.05 µM", 87),
    ("COC(=O)N1CCCN(c2cc(-c3nc4ccccc4n3C)ccn2)CC1", "inhibition at 0.05 µM", 95),
    ("COC(=O)NC1CCN(c2cc(-c3nc4ccccc4n3C)c(F)cn2)CC1", "inhibition at 0.05 µM", 96),
    ("COC(=O)NC1CN(c2cc(-c3nc4ccccc4n3C)c(Cl)cn2)C1", "inhibition at 0.05 µM", 89),
]

Next:
What value of measured inhibition at 0.05 µM is listed for "Cc1cn(C2CN(c3cc(-c4nc5ccccc5n4C)c(Cl)cn3)C2)c(=O)[nH]c1=O" ?
62

====

Tested on: Gli-Luc/MEF cells (Smo)
Assay: Gli-Luc/MEF assay (Shh-stimulated luciferase reporter under the Gli response element)
Type: cell-based, mouse
Conditions: 48 hours
Entries and their pIC50
A value of pIC50 is the negative decimal logarithm of a concentration given in moles per litre.

# COMPOUND, pIC50
rows = [
    ("Cn1c(-c2cc(N3CCN(CCS(C)(=O)=O)CC3)ncc2Cl)nc2ccccc21 [Example A-61]", 7.14),
]

For the next question, use this compound.
Looking for the measured pIC50 of Cn1c(-c2cc(N3CCN(CCS(C)(=O)=O)CC3)ncc2Cl)nc2ccccc21 [Example A-206] , can you help?
7.77

====

Target: human Smo (amino acids 181-787) (Homo sapiens)
Construct: expressed in transfected cells; membrane preparation
Assay: Smo radioligand competition binding assay (displacement of 3H-PF-03451358 from HEK293 membranes)
Conditions: 0.05 μM test compound; displacement of 3H-PF-03451358; read-out: SMO % inh. @ 0.05 μM
OBSERVATION_TYPE: inhibition at 0.05 µM
Remember to follow the number with its unit.

Some compounds with recorded inhibition at 0.05 µM:
# COMPOUND, TEST_RESULT
rows = [
    ("Cn1c(-c2cc(N3CCC(CO)C3)ncc2Cl)nc2ccccc21 (stereo not shown) [Example A-102]", "80%"),
    ("Cn1c(-c2nc(N3CCC(O)CC3)ncc2Cl)nc2ccccc21 [Example C-11]", "98%"),
    ("Cn1c(-c2ccnc(N3CCCN(S(C)(=O)=O)CC3)c2)nc2ccccc21 [Example A-14]", "84%"),
    ("Cn1c(-c2nc(N3CCOCC3)ncc2Cl)nc2ccccc21 [Example C-12]", "93%"),
    ("Cn1c(-c2ccnc(N3CCC(S(C)(=O)=O)CC3)c2)nc2ccccc21 [Example A-10]", "80%"),
]

Which inhibition at 0.05 µM value belongs to Cn1c(-c2cc(N3CCC(S(C)(=O)=O)CC3)ncc2Cl)nc2ccccc21 [Example A-20] ?
87%

Queued: Cn1c(-c2cc(N3CCN4C[C@H](O)CC4C3)ncc2Cl)nc2ccccc21 (stereo in doubt) [Example A-92]
88%

// next record C[C@H]1CN(c2cc(-c3nc4ccccc4n3C)c(Cl)cn2)CCN1S(C)(=O)=O [Example A-161]
98%

Continue with Cn1c(-c2cc(N3CCN(C(=O)C4CCOC4)CC3)ncc2Cl)nc2ccccc21 (stereo not shown) [Example A-191]
101%

Same again, this time with Cc1cnc(N2CCC(NS(C)(=O)=O)CC2)cc1-c1nc2ccccc2n1C [Example E-1]
98%

# iterate: CC(=O)N1CCN(c2cc(-c3nc4ccccc4n3C)c(Cl)cn2)C[C@H]1C [Example A-159]
100%

Okay, and Cn1c(-c2cc(N3C[C@@H](CO)[C@@H](CO)C3)ncc2Cl)nc2ccccc21 [Example A-82] ?
91%

Now try Cn1c(-c2ccnc(N3CCCNCC3)c2)nc2ccccc21 [Example A-13] .
66%

Also, Cn1c(-c2ccnc(N3CCC(CS(C)(=O)=O)CC3)c2)nc2ccccc21 [Example A-12] please.
82%

Entry Cn1c(-c2cc(N3CCC(S(N)(=O)=O)CC3)ncc2Cl)nc2ccccc21 [Example A-66] please
94%

Now this one: Cn1cnnc1C1CCN(c2cc(-c3nc4ccccc4n3C)c(Cl)cn2)CC1 [Example A-132]
51%

Try this compound next: CN(C)C(=O)COC1CCN(c2cc(-c3nc4ccccc4n3C)c(Cl)cn2)C1 (stereo in doubt) [Example A-126]
57%

Try CC(=O)NC1CCN(c2cc(-c3nc4ccccc4n3C)c(Cl)cn2)CC1 [Example A-22] next.
94%

Record: Cn1c(-c2cc(N3CC(c4ncccn4)C3)ncc2Cl)nc2ccccc21 [Example A-131]
52%

Cool, now CN(C1CCN(c2cc(-c3nc4ccccc4n3C)c(Cl)cn2)C1)S(C)(=O)=O (stereo not shown) [Example A-181]
98%

Also, Cn1c(-c2cc(N3CCN(c4ccc(C#N)cn4)CC3)ncc2Cl)nc2ccccc21 [Example A-189] please.
99%

Same read-out for Cn1c(-c2cc(N3CCC(C)(O)CC3)ncc2Cl)nc2ccccc21 [Example A-30] ?
96%

Thanks! And Cn1c(-c2cc(N3CCC(NS(C)(=O)=O)CC3)ncc2Cl)nc2ccccc21 [Example A-5] ?
97%

Request: Cc1ccc(N2CCC(NS(C)(=O)=O)CC2)nc1-c1nc2ccccc2n1C [Example B-13]
98%

Cn1c(-c2cc(N3CCN(C(=O)CO)CC3)ncc2Cl)nc2ccccc21 [Example A-202] ?
97%

What do you have for Cn1cnnc1C1CCCN(c2cc(-c3nc4ccccc4n3C)c(Cl)cn2)C1 (stereo not shown) [Example A-138] ?
45%

Same question, CC(=O)N1CCN(c2cc(-c3nc4ccccc4[nH]3)c(Cl)cn2)CC1 [Example A-215] this time
79%

Same thing, different compound: Cn1c(-c2cc(N3CCC(S(C)(=O)=O)CC3)ncc2Cl)nc2cccnc21 [Example A-37]
67%

Try Cn1c(-c2cc(N3CCC(O)CC3)ncc2Cl)nc2ccccc21 [Example A-25] next.
91%

Moving on to the next compound: Cc1cnc(N2CCC(CS(C)(=O)=O)CC2)cc1-c1nc2ccccc2n1C [Example E-2]
99%

Same again, this time with Cn1c(-c2cc(N3CCC(C(=O)N4CCOCC4)CC3)ncc2Cl)nc2ccccc21 [Example A-80]
92%
